test system: Methicillin-resistant S. epidermidis ET-024; type: cell-based, Staphylococcus epidermidis; conditions: Methicillin-resistant ET-024, 18 h
Non-standard residues stand in square brackets, D forms with d. Residues, ends and D or L forms follow the SMILES beside them. N(4-F-Bzl)Gly = O=C(O)CNCc1ccc(F)cc1; NBzl(4-I)Gly = O=C(O)CNCc1ccc(I)cc1; Nlys = NCCCCNCC(=O)O
Minimal inhibitory concentration MRSE^d values by entry
Result type: Minimal inhibitory concentration MRSE^d (µg/mL)

Molecule	Result type	Reading unit	Endpoint result
NCCCCNCC(=O)N(CC(=O)N(CCCCN)CC(=O)N(CC(=O)N(CCCCN)CC(=O)N(CC(N)=O)Cc1ccc(I)cc1)Cc1ccc(I)cc1)Cc1ccc(I)cc1 [Compound 5] (H-[Nlys][NBzl(4-I)Gly][Nlys][NBzl(4-I)Gly][Nlys][NBzl(4-I)Gly]-NH2)	Minimal inhibitory concentration MRSE^d	µg/mL	4
NCCCCNCC(=O)N(CC(=O)N(CCCCN)CC(=O)N(CC(=O)N(CCCCN)CC(=O)N(CC(=O)N(CCCCN)CC(=O)N(CC(=O)N(CCCCN)CC(=O)N(CC(N)=O)Cc1ccc(F)cc1)Cc1ccc(F)cc1)Cc1ccc(F)cc1)Cc1ccc(F)cc1)Cc1ccc(F)cc1 [Compound 20] (H-[Nlys][N(4-F-Bzl)Gly][Nlys][N(4-F-Bzl)Gly][Nlys][N(4-F-Bzl)Gly][Nlys][N(4-F-Bzl)Gly][Nlys][N(4-F-Bzl)Gly]-NH2)	Minimal inhibitory concentration MRSE^d	µg/mL	4
